Test system: Candida albicans ATCC 90028
assay.text: Antimicrobial MIC assay (CO-ADD) against C. albicans
Format: cell-based
experimental.setup: Candida albicans, ATCC90028, read-out: MIC C.a., Candida albicans ATCC 90028; mean (n = 2)
measurement.type: MIC (µM)
Report only the number, with the unit µM understood.

* C[C@H](CCC(=O)NCCCNCCCCCCCCCCCCNCCCNC(=O)CC[C@@H](C)[C@H]1CC[C@H]2[C@@H]3[C@@H](O)C[C@@H]4C[C@H](O)CC[C@]4(C)[C@H]3CC[C@]12C)[C@H]1CC[C@H]2[C@@H]3[C@@H](O)C[C@@H]4C[C@H](O)CC[C@]4(C)[C@H]3CC[C@]12C.O=C(O)C(F)(F)F.O=C(O)C(F)(F)F | 3.1
* C[C@H](CCC(=O)NCCCNCCCCNCCCNC(=O)CC[C@@H](C)[C@H]1CC[C@H]2[C@@H]3[C@@H](O)C[C@@H]4C[C@H](O)CC[C@]4(C)[C@H]3CC[C@]12C)[C@H]1CC[C@H]2[C@@H]3[C@@H](O)C[C@@H]4C[C@H](O)CC[C@]4(C)[C@H]3CC[C@]12C.O=C(O)C(F)(F)F.O=C(O)C(F)(F)F | 27

Now turn to the next compound.
## Task Param request: MIC | system Candida albicans ATCC 90028 | item `C[C@H](CCC(=O)NCCCNCCCCCCCNCCCNC(=O)CC[C@@H](C)[C@H]1CC[C@H]2[C@@H]3C[C@H](O)[C@@H]4C[C@H](O)CC[C@]4(C)[C@H]3CC[C@]12C)[C@H]1CC[C@H]2[C@@H]3C[C@H](O)[C@@H]4C[C@H](O)CC[C@]4(C)[C@H]3CC[C@]12C.O=C(O)C(F)(F)F.O=C(O)C(F)(F)F`
## Result 13
